// data source = paper PMC8569681

- Target Under Test: tau protein (Homo sapiens)
- Construct: expressed in transfected cells; host or cells: E. coli BL21 (DE3) with pTARA and pRKT42
- Sequence (P10636 1-441 isoform P10636-8): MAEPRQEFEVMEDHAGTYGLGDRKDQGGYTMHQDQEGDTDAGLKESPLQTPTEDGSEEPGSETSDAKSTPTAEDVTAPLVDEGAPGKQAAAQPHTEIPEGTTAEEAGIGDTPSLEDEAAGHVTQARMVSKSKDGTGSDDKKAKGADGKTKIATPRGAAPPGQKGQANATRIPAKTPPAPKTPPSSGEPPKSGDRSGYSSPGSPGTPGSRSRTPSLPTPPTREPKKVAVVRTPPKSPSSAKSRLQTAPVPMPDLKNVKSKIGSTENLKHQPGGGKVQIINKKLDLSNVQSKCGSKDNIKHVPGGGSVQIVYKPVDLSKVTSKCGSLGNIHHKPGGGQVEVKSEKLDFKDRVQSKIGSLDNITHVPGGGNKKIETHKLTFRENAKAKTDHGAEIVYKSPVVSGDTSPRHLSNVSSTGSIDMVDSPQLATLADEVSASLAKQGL
- Assay Overview: Inhibition of tau aggregation in intact E. coli cells, thioflavin-S
- Assay type: cell-based, Escherichia coli
- Condition Info: [I] = 100 μM
Experimental Endpoint: inhibition at 100 µM (%)
Give the quantity in %, number only.

// returns reported inhibition at 100 µM for input c1ccc(CNCCCCCNc2ccccn2)cc1
7

// returns reported inhibition at 100 µM for input Brc1ccc(CNCCCCCCNc2ccccn2)cc1
7.3

// returns reported inhibition at 100 µM for input c1ccc(CNCCCCCCNc2ccccn2)cc1
6.7

// returns reported inhibition at 100 µM for input COc1cc(CNCCCCCCNc2ncccn2)ccc1O
1

// returns reported inhibition at 100 µM for input c1ccc(CNCCCCCCNc2ncccn2)cc1
12.6

// returns reported inhibition at 100 µM for input Oc1cccc(CNCCCCCCNc2ncccn2)c1O
4.6

// returns reported inhibition at 100 µM for input COc1cc(CNCCCCCCNc2ccccn2)ccc1O
12.8

// returns reported inhibition at 100 µM for input c1ccc(CNCCCCCNc2ncccn2)cc1
2.6

// returns reported inhibition at 100 µM for input c1cnc(NCCCCCCNCc2c[nH]c3ccccc23)nc1
6.8

// returns reported inhibition at 100 µM for input COc1ccccc1CNCCCCCCNc1ccccn1
17

// returns reported inhibition at 100 µM for input Oc1cccc(CNCCCCCCNc2ncccn2)c1
9.9

* * *

- Target Under Test: equine BChE (eqBChE) (Equus caballus, UniProt P81908)
- Construct: purchased Sigma-Aldrich (Milan, Italy)
- Sequence (P81908 whole entry): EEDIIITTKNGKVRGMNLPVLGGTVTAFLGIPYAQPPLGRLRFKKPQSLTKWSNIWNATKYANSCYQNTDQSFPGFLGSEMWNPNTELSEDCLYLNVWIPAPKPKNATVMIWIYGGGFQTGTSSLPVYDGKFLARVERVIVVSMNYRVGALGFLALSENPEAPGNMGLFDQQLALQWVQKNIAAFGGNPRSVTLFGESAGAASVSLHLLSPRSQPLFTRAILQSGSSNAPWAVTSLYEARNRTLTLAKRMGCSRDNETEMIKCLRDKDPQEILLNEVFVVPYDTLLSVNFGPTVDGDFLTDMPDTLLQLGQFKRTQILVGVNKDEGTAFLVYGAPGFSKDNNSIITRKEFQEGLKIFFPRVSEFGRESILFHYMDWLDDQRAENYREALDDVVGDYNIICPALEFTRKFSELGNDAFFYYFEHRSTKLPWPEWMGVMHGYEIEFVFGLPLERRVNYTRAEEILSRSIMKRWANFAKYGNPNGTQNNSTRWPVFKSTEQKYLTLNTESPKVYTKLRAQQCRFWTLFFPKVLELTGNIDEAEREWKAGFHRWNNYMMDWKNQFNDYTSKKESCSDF
- Assay Overview: Percent inhibition of eqBChE, Ellman's spectrophotometric method
- Type: biochemical
- Condition Info: [I] 900 nM; 0.0833 U/mL enzyme, 100 μM acetylthiocholine; read-out: % inhibition vs eqBChE ± SD
Experimental Endpoint: inhibition at 0.9 µM (%)
Give the quantity in %, number only.

# example entries with known answers
Smiles: c1ccc(CNCCCCCCNc2ccccn2)cc1
Value Unit: %
inhibition at 0.9 µM: 16.6
//
Smiles: COc1ccccc1CNCCCCCCNc1ncccn1
Value Unit: %
inhibition at 0.9 µM: 6.2
//
Smiles: Clc1cc(CNCCCCCCNc2ccccn2)cc(Cl)n1
Value Unit: %
inhibition at 0.9 µM: 13

// returns reported inhibition at 0.9 µM for input Brc1ccc(CNCCCCCCNc2ccccn2)cc1
17

* * *

- Target Under Test: equine BChE (eqBChE) (Equus caballus)
- Construct: purchased Sigma-Aldrich (Milan, Italy)
- Assay Overview: Percent inhibition of eqBChE, Ellman's spectrophotometric method
- Type: biochemical
- Condition Info: read-out: % inhibition vs eqBChE ± SD (9 uM), 9 uM; supplement csv
Experimental Endpoint: inhibition at 9 µM (%)
Give the quantity in %, number only.

// returns reported inhibition at 9 µM for input Clc1ccc(CNCCCCCCNc2ncccn2)cc1
21.5

* * *

This section presents molecules with their documented inhibition at 0.9 µM values.
- Target Under Test: Electrophorus electricus AChE (EeAChE) (Electrophorus electricus, UniProt O42275)
- Construct: purchased Sigma-Aldrich (Milan, Italy)
- Sequence (O42275 24-633): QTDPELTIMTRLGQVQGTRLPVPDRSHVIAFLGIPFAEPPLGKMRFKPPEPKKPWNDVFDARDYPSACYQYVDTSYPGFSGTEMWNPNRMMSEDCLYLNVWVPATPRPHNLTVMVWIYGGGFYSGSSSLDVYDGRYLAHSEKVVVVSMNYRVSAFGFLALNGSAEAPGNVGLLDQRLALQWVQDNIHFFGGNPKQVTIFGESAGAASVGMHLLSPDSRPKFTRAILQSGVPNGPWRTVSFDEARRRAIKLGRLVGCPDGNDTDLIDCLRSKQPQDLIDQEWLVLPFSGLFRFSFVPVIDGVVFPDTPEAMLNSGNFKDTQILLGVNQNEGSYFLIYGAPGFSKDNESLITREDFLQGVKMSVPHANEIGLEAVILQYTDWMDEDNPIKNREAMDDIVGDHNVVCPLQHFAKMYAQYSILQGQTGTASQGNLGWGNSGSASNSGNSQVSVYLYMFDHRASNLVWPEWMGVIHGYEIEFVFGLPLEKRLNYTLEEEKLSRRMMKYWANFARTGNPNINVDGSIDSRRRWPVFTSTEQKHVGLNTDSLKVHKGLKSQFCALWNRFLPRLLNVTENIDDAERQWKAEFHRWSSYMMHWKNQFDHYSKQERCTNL
- Assay Overview: Percent inhibition of EeAChE, Ellman's spectrophotometric method
- Assay type: biochemical
- Condition Info: read-out: % inhibition vs EeAChE ± SD, [I] 900 nM; 0.0833 U/mL enzyme, 100 μM acetylthiocholine

# example entries with known answers
Smiles: c1ccc(CNCCCCCNc2ncccn2)cc1
Experimental Endpoint: inhibition at 0.9 µM
Val: 40 to 60%
--
Smiles: Oc1cccc(CNCCCCCCNc2ncccn2)c1
Experimental Endpoint: inhibition at 0.9 µM
Val: 40 to 60%

The record that follows has no inhibition at 0.9 µM shown yet.
// returns reported inhibition at 0.9 µM for input Oc1cccc(CNCCCCCCNc2ncccn2)c1O
40 to 60%
